Record form. Attribute: number of microorganisms, 2 days. Fill in for each entry.
System: Escherichia coli
assay-explanation: preservation efficacy test (PET), European Pharmacopoeia 5.1.3
Format: cell-based
study-conditions: PET, Escherichia coli (EC), 2 days after inoculation
Keep the answer to the number alone.

Lookup: Consider the compound O=c1cccccc1O [Tropolone, reference compound] and give its measured number of microorganisms, 2 days.
Found: 190.000

Lookup: Same lookup for CC(=O)c1ccc(O)cc1 [4-Hydroxyacetophenone, reference compound] , please.
Found: 110.000

Lookup: Same lookup for CCCCCCC(O)C(C)O (stereo not shown) , please.
Found: 810.000

Lookup: Same lookup for CCCCCCC(O)CO (stereo not shown) , please.
Found: 1

Lookup: Same lookup for COc1ccc(C(=O)O)cc1 [anisic acid, reference compound] , please.
Found: 1

Lookup: Same lookup for CCCCCCCC(O)CO (stereo not shown) , please.
Found: 6.700

Lookup: Same lookup for CCCCCCCC(=O)NO [caprylhydroxamic acid, reference compound] , please.
Found: 6.900

Lookup: Same lookup for CCCCCCCCC(O)CO (stereo not shown) [1,2-decylene glycol, reference compound] , please.
Found: 1

Lookup: Same lookup for CCCCC(CC)COCC(O)CO (stereo not shown) [Ethylhexlglycerin, Ethylhexylglycerin, reference compound] , please.
Found: 10.000

Lookup: Same lookup for CCCCCC(O)C(C)O (stereo not shown) , please.
Found: 48.000

----------
Tested on: Pseudomonas aeruginosa
assay-explanation: preservation efficacy test (PET), European Pharmacopoeia 5.1.3
Type: cell-based
study-conditions: PA; 28 days after inoculation; use concentration in label
property: count at 28 days
Keep the answer to the number alone.

Lookup: I'm curious: which count at 28 days was measured for CC(O)C(=O)[O-].[Na+] (stereo not shown) [0.8% sodium lactate (50%)] tested on Pseudomonas aeruginosa?
Found: 1

Lookup: Same lookup for CCCCC(O)C(C)O (stereo not shown) [0.4% 2,3 Heptandiol] , please.
Found: 1

Lookup: Same lookup for `CC(=O)CCC(=O)O` , please.
Found: 1

Lookup: Same lookup for CCCCCC(O)C(C)O (stereo not shown) , please.
Found: 1

Lookup: Same lookup for O=C([O-])CN(CCN(CC(=O)O)CC(=O)O)CC(=O)[O-].[Na+].[Na+] [0.2 % Disodium EDTA] , please.
Found: 1

Lookup: Same lookup for `O=C([O-])CC[C@@H](C(=O)[O-])N(CC(=O)[O-])CC(=O)[O-].[Na+].[Na+].[Na+].[Na+]` , please.
Found: 350.000

Lookup: Same lookup for CCCCCC(O)CO (stereo not shown) [0.4 % 1,2-heptanediol] , please.
Found: 1

Lookup: Same lookup for CC(C)(C)C(=O)C(Oc1ccc(Cl)cc1)n1ccnc1 (stereo not shown) , please.
Found: 940.000

Lookup: Same lookup for CCCCCCCC(=O)NO [0.4% caprylhydroxamic acid] , please.
Found: 1

Lookup: Same lookup for CCCCCC(O)CO (stereo not shown) [0.2 % 1,2-heptanediol] , please.
Found: 1

Lookup: Same lookup for CCCCCC(O)CO (stereo not shown) [1,2-heptanediol] , please.
Found: 1

Lookup: Same lookup for `CC(C)=CCC/C(C)=C/CC/C(C)=C/CO` , please.
Found: 65.000

Lookup: Same lookup for CCCCCC(O)CO (stereo not shown) [0.3% 1.2-heptanediol] , please.
Found: 1

Lookup: Same lookup for CC(=O)CCc1ccc(OCCO)cc1 [0.4% Hydroxyethoxyphenyl Butanone] , please.
Found: 1

Lookup: Same lookup for `Cc1ccc(C(C)C)c(O)c1` , please.
Found: 1

Lookup: Same lookup for `Cc1cc(O)ccc1C(C)C` , please.
Found: 460.000

Lookup: Same lookup for CCCCC(O)C(C)O (stereo not shown) [0.4% 2,3-heptanediol] , please.
Found: 1

Lookup: Same lookup for `OCCCO` , please.
Found: 1

Lookup: Same lookup for `O=P(O)(O)O[C@H]1[C@H](OP(=O)(O)O)[C@@H](OP(=O)(O)O)[C@H](OP(=O)(O)O)[C@@H](OP(=O)(O)O)[C@H]1OP(=O)(O)O` , please.
Found: 1

----------
Tested on: Candida albicans
assay-explanation: preservation efficacy test (PET), European Pharmacopoeia 5.1.3
Format: cell-based
study-conditions: PET, Candida albicans (CA), 14 days after inoculation
property: number of microorganisms, 14 days
Keep the answer to the number alone.

Lookup: Consider the compound CCCCCCC(O)CO (stereo not shown) and give its measured number of microorganisms, 14 days.
Found: 1

Lookup: Same lookup for CCCCCCCC(=O)NO [caprylhydroxamic acid, reference compound] , please.
Found: 1

Lookup: Same lookup for CCCCCCCCC(O)CO (stereo not shown) [1,2-decylene glycol, reference compound] , please.
Found: 4.100

Lookup: Same lookup for O=c1cccccc1O [Tropolone, reference compound] , please.
Found: 1

Lookup: Same lookup for CC(=O)c1ccc(O)cc1 [4-Hydroxyacetophenone, reference compound] , please.
Found: 130.000

Lookup: Same lookup for CCCCCCCC(O)CO (stereo not shown) , please.
Found: 890

Lookup: Same lookup for COc1ccc(C(=O)O)cc1 [anisic acid, reference compound] , please.
Found: 1

----------
Tested on: Candida albicans
assay-explanation: preservation efficacy test (PET), European Pharmacopoeia 5.1.3
Type: cell-based
study-conditions: CA; 14 days after inoculation; use concentration in label
property: count at 14 days

Lookup: Consider the molecule CCCCCC(O)CO (stereo not shown) [0.3% 1.2-heptanediol] and give its measured count at 14 days.
Found: 260.000

Lookup: Same lookup for CCCCCC(O)C(C)O (stereo not shown) [2,3-octanediol] , please.
Found: 120.000

Lookup: Same lookup for CCCCCCCC(=O)NO [0.4% caprylhydroxamic acid] , please.
Found: 1

Lookup: Same lookup for CCCCC(O)C(C)O (stereo not shown) [0.4% 2,3-heptanediol] , please.
Found: 130.000

----------
System: Escherichia coli
assay-explanation: preservation efficacy test (PET), European Pharmacopoeia 5.1.3
Assay type: cell-based
study-conditions: EC; 7 days after inoculation; use concentration in label
Assign class by count at 7 days: not lower than 70 means rule met; lower than 70 means rule not met.

Lookup: Would you say `CC(C)=CCC/C(C)=C/CC/C(C)=C/CO` shows count at 7 days at minimum 70?
Found: rule met

Lookup: Same lookup for O=C([O-])CN(CCN(CC(=O)O)CC(=O)O)CC(=O)[O-].[Na+].[Na+] [0.2 % Disodium EDTA] , please.
Found: rule met

Lookup: Same lookup for CCCCC(O)C(C)O (stereo not drawn) [0.4% 2,3-heptanediol] , please.
Found: rule not met

Lookup: Same lookup for CCCCC(O)C(C)O (stereo not drawn) [0.4% 2,3 Heptandiol] , please.
Found: rule not met

Lookup: Same lookup for CC(=O)CCc1ccc(OCCO)cc1 [0.4% Hydroxyethoxyphenyl Butanone] , please.
Found: rule not met

Lookup: Same lookup for CCCCCC(O)CO (stereo not drawn) [0.2 % 1,2-heptanediol] , please.
Found: rule not met

Lookup: Same lookup for CC(O)C(=O)[O-].[Na+] (stereo not drawn) [0.8% sodium lactate (50%)] , please.
Found: rule met

Lookup: Same lookup for `O=C([O-])CC[C@@H](C(=O)[O-])N(CC(=O)[O-])CC(=O)[O-].[Na+].[Na+].[Na+].[Na+]` , please.
Found: rule not met

Lookup: Same lookup for `Cc1ccc(C(C)C)c(O)c1` , please.
Found: rule met

Lookup: Same lookup for `OCCCO` , please.
Found: rule met

Lookup: Same lookup for `Cc1cc(O)ccc1C(C)C` , please.
Found: rule met

Lookup: Same lookup for CC(C)(C)C(=O)C(Oc1ccc(Cl)cc1)n1ccnc1 (stereo not drawn) , please.
Found: rule met

Lookup: Same lookup for CCCCCC(O)CO (stereo not drawn) [0.3% 1.2-heptanediol] , please.
Found: rule not met

Lookup: Same lookup for CCCCCCCC(=O)NO [0.4% caprylhydroxamic acid] , please.
Found: rule not met

Lookup: Same lookup for `O=P(O)(O)O[C@H]1[C@H](OP(=O)(O)O)[C@@H](OP(=O)(O)O)[C@H](OP(=O)(O)O)[C@@H](OP(=O)(O)O)[C@H]1OP(=O)(O)O` , please.
Found: rule not met

Lookup: Same lookup for CCCCCC(O)CO (stereo not drawn) [0.4 % 1,2-heptanediol] , please.
Found: rule not met

Lookup: Same lookup for CCCCCC(O)C(C)O (stereo not drawn) , please.
Found: rule not met

Lookup: Same lookup for `CC(=O)CCC(=O)O` , please.
Found: rule not met

----------
Tested on: Aspergillus brasiliensis
assay-explanation: preservation efficacy test (PET), European Pharmacopoeia 5.1.3
Type: cell-based
study-conditions: AB; 7 days after inoculation; use concentration in label
property: count at 7 days
Keep the answer to the number alone.

Lookup: Consider the compound Cc1ccc(C(C)C)c(O)c1 [0.1% Thymol] and give its measured count at 7 days.
Found: 520.000

Lookup: Same lookup for O=P(O)(O)O[C@H]1[C@H](OP(=O)(O)O)[C@@H](OP(=O)(O)O)[C@H](OP(=O)(O)O)[C@@H](OP(=O)(O)O)[C@H]1OP(=O)(O)O [0.4% phytic acid] , please.
Found: 290.000

Lookup: Same lookup for CC(=O)CCC(=O)O [0.4% Levulinic Acid] , please.
Found: 440.000

Lookup: Same lookup for CCCCCC(O)CO (stereo not drawn) [0.2 % 1,2-heptanediol] , please.
Found: 630.000

Lookup: Same lookup for CCCCCC(O)C(C)O (stereo not drawn) [2,3-octanediol] , please.
Found: 660.000

Lookup: Same lookup for `O=C([O-])CC[C@@H](C(=O)[O-])N(CC(=O)[O-])CC(=O)[O-].[Na+].[Na+].[Na+].[Na+]` , please.
Found: 440.000
